# target.system: NADPH oxidase 5 (Homo sapiens)
# assay.overview: compounds shifting NOX5 Amplex Red fluorescence – cell-based, HEK293-NOX5, NOX inhibitor project, primary screen (AID 1161)
# test.settings: HEK293-NOX5, ionomycin, 45 min, higher = more signal
Entries annotated with measured z-score

# molecule, target.system, z-score
data = [
    ("CC1=C2[C@@H](CCc3ccccc3)OB(O)C[C@@H]2[C@@H]2C(=O)N(C)C(=O)[C@@H]2C1", "NADPH oxidase 5 (Homo sapiens)", -0.54),
    ("COc1ccc(CCNC(=O)[C@@]2(Sc3ccc(C)cc3)CC(=O)N(Cc3ccccc3C(F)(F)F)[C@@H]2c2ccc(CO)cc2I)cc1", "NADPH oxidase 5 (Homo sapiens)", 0.713),
    ("C=CCNC(=O)[C@@H]1[C@H]2C(=O)O[C@H](c3ccccc3)[C@H](c3ccccc3)N2[C@H](c2ccccc2OCCO)[C@@]12C(=O)Nc1ccc(C#CCCO)cc12", "NADPH oxidase 5 (Homo sapiens)", 0.849),
    ("C#CCN(Cc1ccccc1Br)[C@H](/C=C/c1ccccc1)[C@@H](O)Cc1ccccc1", "NADPH oxidase 5 (Homo sapiens)", -0.639),
    ("COc1cc(NN2C(C(O)c3ccc(N(C)C)cc3)C=CC3C(=O)N(c4ccccc4)C(=O)C32)cc(OC)c1OC (stereo not given)", "NADPH oxidase 5 (Homo sapiens)", -4.75),
]
